Listed here are compounds together with their documented melting point.

Would you please look over these solved cases?
O[C@@H]1[C@H](O)CS[C@H]1n1cnc2c(NCc3cccc(Br)c3)nc(Cl)nc21 :: 184 to 185 °C
O[C@@H]1[C@H](O)CO[C@H]1n1cnc2c(NCc3cccc(I)c3)nc(Cl)nc21 :: 195.5 to 195.8 °C
O[C@@H]1[C@H](O)CO[C@H]1n1cnc2c(NCc3cccc(Br)c3)nc(Cl)nc21 :: 181.5 to 181.7 °C

Note: attention shifts to another entry.
Look up and report measured melting point for this entry: COc1ccccc1CNc1nc(Cl)nc2c1ncn2[C@@H]1SC[C@@H](O)[C@H]1O 188 °C

----------
Biological target: adenosine A3 receptor in rats expressed in Chinese hamster ovary (CHO) cells (Rattus norvegicus, UniProt P28647)
Construct: expressed in transfected cells; host or cells: CHO
Sequence (P28647 whole entry): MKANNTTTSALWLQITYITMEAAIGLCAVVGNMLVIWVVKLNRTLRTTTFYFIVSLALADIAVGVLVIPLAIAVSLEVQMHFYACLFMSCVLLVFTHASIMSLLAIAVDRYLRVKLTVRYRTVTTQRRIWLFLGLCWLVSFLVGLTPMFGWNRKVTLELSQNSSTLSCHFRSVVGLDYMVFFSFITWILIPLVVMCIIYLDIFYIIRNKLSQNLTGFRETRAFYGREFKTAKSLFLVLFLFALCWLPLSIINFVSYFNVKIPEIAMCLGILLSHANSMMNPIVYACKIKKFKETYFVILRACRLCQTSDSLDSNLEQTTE
Experiment: Binding affinity for rat adenosine A3 receptor expressed in CHO cells
readout-name: pKi
FYI, pKi means -log10 of a concentration in mol per litre.

Look up and report measured pKi for this entry: O[C@@H]1[C@H](O)CS[C@H]1n1cnc2c(NCc3cccc(I)c3)nc(Cl)nc21 8.41

----------
Target: hERG (Homo sapiens)
Sequence (Q12809 whole entry): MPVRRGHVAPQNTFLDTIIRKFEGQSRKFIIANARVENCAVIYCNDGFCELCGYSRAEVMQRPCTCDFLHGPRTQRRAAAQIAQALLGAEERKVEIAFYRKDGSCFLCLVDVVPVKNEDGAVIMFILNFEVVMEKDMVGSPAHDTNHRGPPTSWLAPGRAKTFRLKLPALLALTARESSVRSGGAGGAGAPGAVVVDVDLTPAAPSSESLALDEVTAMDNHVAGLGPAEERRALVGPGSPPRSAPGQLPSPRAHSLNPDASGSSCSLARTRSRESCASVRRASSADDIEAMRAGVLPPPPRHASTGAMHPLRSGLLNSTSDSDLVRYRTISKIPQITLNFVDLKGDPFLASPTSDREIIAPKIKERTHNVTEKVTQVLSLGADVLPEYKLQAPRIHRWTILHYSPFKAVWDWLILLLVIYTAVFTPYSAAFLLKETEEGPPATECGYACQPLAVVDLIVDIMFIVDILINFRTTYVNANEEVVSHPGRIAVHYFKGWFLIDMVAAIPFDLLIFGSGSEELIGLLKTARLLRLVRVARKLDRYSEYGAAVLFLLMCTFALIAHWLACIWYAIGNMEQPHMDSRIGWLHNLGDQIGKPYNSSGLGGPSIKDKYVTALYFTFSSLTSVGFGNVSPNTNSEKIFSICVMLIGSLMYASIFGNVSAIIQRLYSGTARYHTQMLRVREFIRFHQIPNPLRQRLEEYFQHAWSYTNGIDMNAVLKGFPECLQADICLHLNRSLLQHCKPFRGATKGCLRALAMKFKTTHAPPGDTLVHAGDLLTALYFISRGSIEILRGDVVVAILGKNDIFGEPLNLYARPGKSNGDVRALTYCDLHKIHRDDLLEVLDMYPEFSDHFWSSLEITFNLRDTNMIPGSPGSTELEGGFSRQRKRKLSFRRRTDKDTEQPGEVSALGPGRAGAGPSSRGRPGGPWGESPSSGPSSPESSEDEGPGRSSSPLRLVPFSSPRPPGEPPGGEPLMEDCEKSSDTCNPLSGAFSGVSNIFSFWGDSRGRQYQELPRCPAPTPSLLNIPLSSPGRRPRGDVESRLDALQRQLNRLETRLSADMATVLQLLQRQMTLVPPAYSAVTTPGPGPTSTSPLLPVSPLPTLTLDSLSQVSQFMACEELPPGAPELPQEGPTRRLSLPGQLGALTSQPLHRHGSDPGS
Experiment: Cardiotoxicity, hERG ligand binding assay (fluorescence polarization)
Conditions: human, hERG channel protein (ligand binding assay), probe red fluorescent hERG channel ligand tracer; 10 μM; read-out: inhibition rate (hERG channel ligand tracer binding)
readout-name: inhibition at 10 µM

Look up and report measured inhibition at 10 µM for this entry: O[C@@H]1[C@H](O)CS[C@H]1n1cnc2c(NCc3cccc(Cl)c3)nc(Cl)nc21 ≤ 50%

----------
Listed here are molecules together with their documented melting point.

O=C(O)c1cccc(CNc2nc(Cl)nc3c2ncn3[C@@H]2SC[C@H](O)[C@@H]2O)c1 [Example 9] :: 254 to 256.9 °C
COc1ccc(Cl)cc1CNc1nc(Cl)nc2c1ncn2[C@@H]1SC[C@@H](O)[C@H]1O [Example 6] :: 188.8 to 189.8 °C
O[C@@H]1[C@H](O)CS[C@H]1n1cnc2c(NCc3cccc(Br)c3)ncnc21 [Example 13] :: 183 to 184 °C
O[C@@H]1[C@H](O)CS[C@H]1n1cnc2c(NCc3ccccc3Cl)nc(Cl)nc21 [Example 5] :: 198.7 to 199.7 °C
O[C@@H]1[C@H](O)CS[C@H]1n1cnc2c(NCc3cccc(F)c3)nc(Cl)nc21 [Example 1] :: 183.2 to 183.5 °C

Look up and report measured melting point for this entry: O[C@@H]1[C@H](O)CS[C@H]1n1cnc2c(NCc3cccc(I)c3)ncnc21 [Example 14] 198.8 to 199.8 °C
